measure: melting point

Sample answers from the record:
smiles_notation: COc1ccc(C(=O)N/C(=C\c2cc(OC)c(OC)c(OC)c2)C(=O)NNC(=O)c2cc(-c3ccc(Br)cc3)nc3ccccc23)cc1
result: 208 to 210 °C
--
smiles_notation: COc1ccc(C(=O)N/C(=C\c2ccc(OC)c(OC)c2)C(=O)NNC(=O)c2cc(-c3ccc(Br)cc3)nc3ccccc23)cc1
result: 235 to 237 °C
--
smiles_notation: COc1ccc(C(=O)N/C(=C\c2ccc(Cl)cc2)C(=O)NNC(=O)c2cc(-c3ccc(Br)cc3)nc3ccccc23)cc1
result: 276 to 278 °C

Prompt: Recorded melting point of "COc1ccc(C(=O)N/C(=C\c2ccc(F)cc2)C(=O)NNC(=O)c2cc(-c3ccc(Br)cc3)nc3ccccc23)cc1" , please.
Response: 258 to 260 °C

Prompt: And "COc1ccc(C(=O)N/C(=C\c2ccc(Br)cc2)C(=O)NNC(=O)c2cc(-c3ccc(Br)cc3)nc3ccccc23)cc1" ?
Response: 261 to 263 °C

Prompt: And "COc1ccc(C(=O)N/C(=C\c2ccc(OC)c(OC)c2OC)C(=O)NNC(=O)c2cc(-c3ccc(Br)cc3)nc3ccccc23)cc1" ?
Response: 192 to 194 °C

Prompt: And "COc1ccc(C(=O)N/C(=C\c2ccco2)C(=O)NNC(=O)c2cc(-c3ccc(Br)cc3)nc3ccccc23)cc1" ?
Response: 257 to 259 °C

Prompt: And "COc1ccc(C(=O)N/C(=C\c2cc(Br)c(OC(C)=O)c(Br)c2)C(=O)NNC(=O)c2cc(-c3ccc(Br)cc3)nc3ccccc23)cc1" ?
Response: 217 to 219 °C

Prompt: And "COc1ccc(C(=O)N/C(=C\c2ccc(C)cc2)C(=O)NNC(=O)c2cc(-c3ccc(Br)cc3)nc3ccccc23)cc1" ?
Response: 246 to 248 °C

Data provenance: paper PMC11273260
